System: Staphylococcus aureus
Experiment: Antibacterial activity against Staphylococcus aureus ATCC 25923 after 6 to 8 hrs by bacterial proliferation assay
Type: functional, organism-based
Provide the recorded EC50 for the entries that follow.

Some entries whose results are on file:
Recall the reported EC50 of O=C(Nc1cccc(Cl)c1)c1cc(Br)cc(Br)c1O when tested on Staphylococcus aureus.
0.66 µM

Recall the reported EC50 of COc1c(Br)cccc1C(=O)Nc1ccc(Sc2nc3ccccc3s2)cc1 when tested on Staphylococcus aureus.
> 100 µM

Recall the reported EC50 of COc1ccccc1C(=O)Nc1ccccc1 when tested on Staphylococcus aureus.
> 100 µM

Recall the reported EC50 of COc1ccccc1C(=O)Nc1cccc(Cl)c1 when tested on Staphylococcus aureus.
> 100 µM

Recall the reported EC50 of COc1c(Br)cccc1C(=O)Nc1ccccc1 when tested on Staphylococcus aureus.
> 100 µM

Recall the reported EC50 of COc1c(Br)cc(Br)cc1C(=O)Nc1ccc(Sc2nc3ccccc3s2)cc1 when tested on Staphylococcus aureus.
> 100 µM

Answer for every listed entry: what is its EC50? The entries follow.
1. COc1c(Br)cc(Br)cc1C(=O)Nc1ccccc1
2. COc1ccc(Br)cc1C(=O)Nc1ccc(Sc2nc3ccccc3s2)c(Cl)c1

1. > 100 µM
2. > 100 µM

Answer for every listed entry: what is its EC50? The entries follow.
1. O=C(Nc1ccccc1)c1cccc(Br)c1O
2. O=C(Nc1ccc(Sc2nc3ccccc3s2)c(Cl)c1)c1ccccc1O
3. COc1ccc(Br)cc1C(=O)Nc1ccc(Sc2nc3ccccc3s2)cc1
4. COc1ccc(Br)cc1C(=O)Nc1ccccc1

1: 6.4 µM; 2: 0.31 µM; 3: > 100 µM; 4: > 100 µM
